In this section we review reported intracellular M.tb growth inhibition values for a set of compounds.
# Test system: THP-1 macrophages infected with Mycobacterium tuberculosis H37Rv
# Assay Details: intracellular M.tb growth inhibition relative to DMSO (0) and 4 uM bedaquiline (100); higher = stronger inhibition of intracellular bacterial growth
# Assay Setup: 10 µM; 4 days
// units = %; emit number, no label

See these solved cases before continuing.
| Compound | Unit Name | intracellular M.tb growth inhibition |
| --- | --- | --- |
| O=C(CO)N1CCC(c2n[nH]c(-c3ccc(Cl)cc3)c2-c2ccncn2)CC1 | % | -135 |
| Cc1cc(C=C2C(=O)C=CC2=O)cc(C)c1O | % | -63.7 |
| C[S+]([O-])c1ccc(-c2nc(-c3ccc(F)cc3)c(-c3ccncc3)[nH]2)cc1 (centres undefined) | % | 14.3 |
| CC[C@H](CO)Nc1nc(NCc2ccccc2)c2ncn(C(C)C)c2n1 | % | -23.1 |
| CN1C(=O)C(Cc2c[nH]c3ccccc23)NC1=S (centres undefined) | % | -8.08 |
| NC(=O)c1ccc(N(C(N)=O)c2c(F)cccc2F)nc1-c1ccc(F)cc1F | % | -1.77 |
| CN1CCC(COc2cnc(-c3cccc(Cn4nc(-c5cccc(C#N)c5)ccc4=O)c3)nc2)CC1 | % | 48.3 |
| C[C@@H](Oc1cc(-c2cnn(C3CCNCC3)c2)cnc1N)c1c(Cl)ccc(F)c1Cl | % | -114 |
| O=C(Nc1cc(C(F)(F)F)cc(C(F)(F)F)c1)c1cc(Cl)ccc1O | % | 64.7 |
| COc1ccc(Cl)cc1NC(=O)Nc1cc(C)nc2ccccc12 | % | 59.1 |

Can you share its intracellular M.tb growth inhibition? I mean this compound: "Cc1ccc(NC(=O)c2cccc(N(C)C)c2)cc1NC(=O)c1ccc(O)cc1"
36

Can you share its intracellular M.tb growth inhibition? I mean this compound: "NC(=O)c1ccc(-c2nc(-c3ccc4c(c3)OCCO4)c(-c3ccccn3)[nH]2)cc1"
-106

Can you share its intracellular M.tb growth inhibition? I mean this compound: "O=c1c(-c2ccc(O)cc2)coc2cc(O)cc(O)c12"
10.7

Can you share its intracellular M.tb growth inhibition? I mean this compound: "Cc1csc(-c2nnc(Nc3ccc(Oc4ncccc4-c4ccnc(N)n4)cc3)c3ccccc23)c1"
126

Can you share its intracellular M.tb growth inhibition? I mean this compound: "COc1ccc2c3n(c(=NC(=O)c4cccnc4)nc2c1OC)CCN3"
-0.0325

Can you share its intracellular M.tb growth inhibition? I mean this compound: "N#Cc1c(-c2ccccc2)cc(-c2cc(Br)ccc2O)[nH]c1=O"
19.8

Can you share its intracellular M.tb growth inhibition? I mean this compound: "Cc1[nH]c(/C=C2\C(=O)Nc3cc(-c4ccccc4)ccc32)c(C)c1CCC(=O)O"
-5.41

----------
# Test system: THP-1
# Assay Details: THP-1 cell loss relative to DMSO control; higher = more host cell loss (toxicity); extreme values may be limits of the assay
# Assay Setup: 10 µM; 4 days; infection: M. tuberculosis H37Rv
Counter-ions that a name gives are not always drawn.
In this section we review reported THP-1 cell loss values for a set of compounds.
// units = %; emit number, no label

See these solved cases before continuing.
| Compound | Study System | THP-1 cell loss / % |
| --- | --- | --- |
| CCn1c(-c2nonc2N)nc2cnc(Oc3cccc(NC(=O)c4ccc(OCCN5CCOCC5)cc4)c3)cc21 | THP-1 | 83.5 |
| COc1cc2ncnc(Nc3cccc(Cl)c3)c2cc1OC [Tyrphostin AG 1478 mesylate] | THP-1 | 41.5 |
| COc1cc2nccc(Oc3ccc(NC(=O)Nc4cc(C)on4)c(Cl)c3)c2cc1OC | THP-1 | 27.4 |
| CN(C)CCCn1cc(C2=C(c3c[nH]c4ccccc34)C(=O)NC2=O)c2ccccc21 [Bisindolylmaleimide I hydrochloride] | THP-1 | 100 |
| CC(=O)Nc1ccc([C@H](C)C(=O)Nc2ncc(C(C)C)s2)cc1 | THP-1 | 100 |
| COc1cc(Nc2ncc3c(n2)-c2ccc(Cl)cc2C(c2c(F)cccc2OC)=NC3)ccc1C(=O)O | THP-1 | 8.63 |
| CC(C)[C@H](CO)Nc1nc(Nc2ccc(C(=O)O)c(Cl)c2)c2ncn(C(C)C)c2n1 [Purvalanol B] | THP-1 | 1.78 |
| NS(=O)(=O)c1nn2cc(-c3ccccc3)nc2s1 | THP-1 | 5.48 |

Can you share its THP-1 cell loss? I mean this compound: Cn1cnc2c(NCc3ccccc3)nc(NCCO)nc21 [Olomoucine]
3.14

Can you share its THP-1 cell loss? I mean this compound: "Cc1cc(Nc2cc(N3CCN(C)CC3)nc(/C=C/c3ccccc3)n2)n[nH]1"
70.7

Can you share its THP-1 cell loss? I mean this compound: Nc1ncnc2nc(-c3ccc(N4CCOCC4)nc3)cc(-c3cccc(Br)c3)c12 [ABT-702 dihydrochloride]
24.4

Can you share its THP-1 cell loss? I mean this compound: O=C(C=Cc1ccccc1)NC(NC(=S)Nc1ccc(Cl)cc1)C(Cl)(Cl)Cl (stereo not given)
63.6

Can you share its THP-1 cell loss? I mean this compound: "Cc1cc(C(=O)N2CCN(c3cccc(Cl)c3)CC2)n(-c2ccccc2)n1"
23.2

Can you share its THP-1 cell loss? I mean this compound: "Cc1ccc2nc(NCCN)c3ncc(C)n3c2c1"
100

Can you share its THP-1 cell loss? I mean this compound: O=S(=O)(NCCNC/C=C/c1ccc(Br)cc1)c1cccc2cnccc12 [H 89 dihydrochloride]
10

Can you share its THP-1 cell loss? I mean this compound: "Nc1cc(C(F)(F)F)c(-c2cc(N3CCOCC3)nc(N3CCOCC3)n2)cn1"
73.3

Can you share its THP-1 cell loss? I mean this compound: "O=C(NOCC1CC1)c1cc(Br)c(F)c(F)c1Nc1ccc(I)cc1Cl"
55.1

Can you share its THP-1 cell loss? I mean this compound: "Nc1ncnc(Nc2ccc(OCc3ccccc3)c(Cl)c2)c1/C=N/OCCN1CCOCC1"
38.7

Can you share its THP-1 cell loss? I mean this compound: "c1ccc(-c2n[nH]c3c2oc2ccccc23)cc1"
9.81

Can you share its THP-1 cell loss? I mean this compound: "O=C1NCCCc2c1oc1ccc(O)cc21"
6.23
